Experiment: qHTS for Inhibitors of Plasmodium falciparum (GB4) proliferation (AID 504315); also: nearly all actives have a fitted effect of over 50% in size; also: potency is read from the fitted curve at half-maximal effect
Conditions: P. falciparum GB4 in erythrocytes, SYBR Green DNA, 72 h; series mostly up to 6.7 µM
Results filed as inconclusive are left out. Active and inactive are the calls of the source. Calls follow the shape of the dose curve; as a rule, active = well fitted inhibition curve with a large enough effect; inconclusive = small, poorly fitted or top-dose-only effect, or effect the other way; inactive = flat fitted curve, though single readings scatter.
VALUE_KIND: Potency

- COMPOUND: "COC/C=C/C1=CC2=CC(=O)C(C)(OC(=O)c3cnc4ccccc4n3)C(=O)C2=CN1c1cccc(C#N)c1 (centres undefined)"
  Potency: "inactive"
- COMPOUND: "CCN1C(=O)N[C@@H](CCc2ccccc2)C(C(C)=O)=C1C"
  Potency: "inactive"
- COMPOUND: "C=CCN1c2ccccc2[C@]23C[C@@H](C(=O)OC)N(S(=O)(=O)c4ccc([N+](=O)[O-])cc4)C2=NC(C(=O)OC)=C(C(=O)OC)[C@H]13"
  Potency: "1.51 µM (active)"
- COMPOUND: "COC/C=C/C1=CC2=CC(=O)C(C)(OC(=O)c3cnc4ccccc4n3)C(=O)C2=CN1Cc1ccc(OC)cc1 (centres undefined)"
  Potency: "inactive"
- COMPOUND: "CC#CCN1c2ccccc2[C@]23C[C@@H](C(=O)OC)N(S(=O)(=O)c4ccc(Br)cc4)C2=NC(C(=O)OC)=C(C(=O)OC)[C@H]13"
  Potency: "1.69 µM (active)"
- COMPOUND: "CC[C@@H](C)CN1C(=O)N[C@@H](CCc2ccccc2)C(C(C)=O)=C1C"
  Potency: "inactive"
- COMPOUND: "CC1(OC(=O)CCc2ccccc2)C(=O)C=C2C=C(c3ccc(C#N)cc3)N(C3CCCCC3)C=C2C1=O (centres undefined)"
  Potency: "inactive"
- COMPOUND: "CCN1C(=O)N[C@@H](CCc2ccccc2)[C@H](C(=O)OC)[C@H]1C"
  Potency: "inactive"
- COMPOUND: "FC(F)(F)c1cc(NC(=S)NC23CC4CC(CC(C4)C2)C3)cc(C(F)(F)F)c1"
  Potency: "1.07 µM (active)"
- COMPOUND: "CCOC(=O)CN1C(=O)N[C@@H](c2cccs2)C(C(C)=O)=C1C"
  Potency: "inactive"

Record Potency per entry; entries follow.
1. C[C@H]1Cc2c(COc3ccccc3)nc3c(c2CO1)CN(C(=O)NCCc1c[nH]c2ccccc12)CC3
2. C[C@H]1Cc2c(-c3ccccc3)nc3c(c2CO1)CN(S(=O)(=O)c1ccc(C#N)cc1)CC3
3. CC(=O)C1=C(C)N(Cc2ccccc2)C(=O)N[C@H]1c1cccc(F)c1
4. CC1(OC(=O)c2ccc(Cl)nc2)C(=O)C=C2C=C(C3CC3)OC=C2C1=O (centres undefined)

Reply:
1. inactive
2. inactive
3. inactive
4. inactive
